# EXPERIMENT SUMMARY: Percentage of maximum displacement of 1.0 nM [3H]NPY from rat brain membranes homogenates using 1.0 uM NPY to determine specific binding
# Format: cell membranes
# EXPERIMENTAL CONDITIONS: Membrane
OBSERVED PROPERTY: maximal displacement of specific binding (%)

• N=C(N)N(CCCCCCNCC12C[C@H]3C[C@@H](C1)C[C@@H](C2)C3)CCSSCCN(CCCCCCNCC12C[C@H]3C[C@@H](C1)C[C@@H](C2)C3)C(=N)N = 68
• COc1ccccc1CNCCCCCCNCCSSCCNCCCCCCNCc1ccccc1OC = 65
• N=C(N)N(CCCCCCNCc1ccc2ccccc2c1)CCSSCCN(CCCCCCNCc1ccc2ccccc2c1)C(=N)N = 76
• c1ccc2cc(CNCCCCCCNCCCCCCNCCCCCCNCc3ccc4ccccc4c3)ccc2c1 = 75
• N=C(N)N(CCCCCCNCc1ccc2ccccc2c1)CCCCCCN(CCCCCCNCc1ccc2ccccc2c1)C(=N)N = 72
• c1ccc2cc(CNCCCCCCNCCSSCCNCCCCCCNCc3ccc4ccccc4c3)ccc2c1 = 68

* * *

# EXPERIMENT SUMMARY: Concentration producing half maximal displacement of [3H]NPY specific binding from benextramine sensitive NPY binding sites in rat brain membranes
# Assay type: cell membranes
pIC50: −log10 of the molar value.
The following molecules are listed with their measured pIC50 values.
OBSERVED PROPERTY: pIC50

* c1ccc2cc(CNCCCCCCNCCCCCCNCCCCCCNCc3ccc4ccccc4c3)ccc2c1 | 4.32
* N=C(N)N(CCCCCCNCC12C[C@H]3C[C@@H](C1)C[C@@H](C2)C3)CCSSCCN(CCCCCCNCC12C[C@H]3C[C@@H](C1)C[C@@H](C2)C3)C(=N)N | 4.82
* N=C(N)N(CCCCCCNCc1ccc2ccccc2c1)CCCCCCN(CCCCCCNCc1ccc2ccccc2c1)C(=N)N | 4.74
* N=C(N)N(CCCCCCNCc1ccc2ccccc2c1)CCSSCCN(CCCCCCNCc1ccc2ccccc2c1)C(=N)N | 4.83
* c1ccc2cc(CNCCCCCCNCCSSCCNCCCCCCNCc3ccc4ccccc4c3)ccc2c1 | 4.50
* COc1ccccc1CNCCCCCCNCCSSCCNCCCCCCNCc1ccccc1OC | 4.24
